Each recorded value in this set is attributed to PubChem BioAssay (NCATS).

Test system: OV90
Assay: Primary qHTS to identify gynecologic anti-cancer compounds using libraries of approved drugs and bioactive compounds (AID 1345084); also: nearly all actives have a fitted effect of over 55% in size
Settings: Gynecologic cancer cell panel viability, ATPlite luminescence, 48 h; series mostly up to 57.5 µM
Inconclusive results are not listed. Activity calls are given as the source filed them. Calls follow the shape of the dose curve; as a rule, active = well fitted cell-killing curve with a large enough effect; inconclusive = small, poorly fitted or top-dose-only effect, or effect the other way; inactive = flat fitted curve, though single readings scatter.
A correct response names exactly one class from active, inactive

Please review the following examples before continuing.
{"columns": ["molecule", "target-or-system", "assigned-label"],
 "data": [
  ["Cc1ccc(Nc2c(F)cccc2Cl)c(CC(=O)O)c1", "OV90", "inactive"],
  ["CC(=O)N(O)CCCCCNC(=O)CCC(=O)N(O)CCCCCNC(=O)CCC(=O)N(O)CCCCCN", "OV90", "active"],
  ["CC(O)C(=O)O (stereo not given)", "OV90", "inactive"],
  ["CO/N=C1\\CN(c2nc3c(cc2F)c(=O)c(C(=O)O)cn3C2CC2)CC1CN (stereo not given)", "OV90", "inactive"],
  ["C[C@H]1[C@H](NC(=O)/C(=N/OC(C)(C)C(=O)O)c2csc(N)n2)C(=O)N1S(=O)(=O)O (stereo in doubt)", "OV90", "inactive"],
  ["COc1cccc2c1C(=O)c1c(O)c3c(c(O)c1C2=O)C[C@@](O)(C(C)=O)C[C@@H]3O[C@H]1C[C@H](N)[C@H](O)[C@H](C)O1", "OV90", "active"],
  ["CC(=O)O[C@]1(C(C)=O)CC[C@H]2[C@@H]3C[C@H](C)C4=CC(=O)CC[C@]4(C)[C@H]3CC[C@@]21C", "OV90", "inactive"],
  ["Oc1c(Cl)cc(Cl)cc1Sc1cc(Cl)cc(Cl)c1O", "OV90", "inactive"],
  ["Cc1ncc(CSSCc2cnc(C)c(O)c2CO)c(CO)c1O", "OV90", "inactive"],
  ["NC(=O)CC[C@@H]1NC(=O)[C@H](Cc2ccccc2)NC(=O)[C@H](Cc2ccc(O)cc2)NC(=O)CCSSC[C@@H](C(=O)N2CCC[C@H]2C(=O)N[C@@H](CCCN=C(N)N)C(=O)NCC(N)=O)NC(=O)[C@H](CC(N)=O)NC1=O", "OV90", "inactive"]
]}

IN: For this molecule, state the assay outcome: C=C1C(=C/C=C2\CCC[C@]3(C)[C@@H]([C@H](C)/C=C/[C@@H](O)C4CC4)CC[C@@H]23)C[C@@H](O)C[C@@H]1O
OUT: inactive

IN: Call for entry O=C1OC(c2ccc(O)cc2)(c2ccc(O)cc2)c2ccccc21 :
OUT: active

IN: Hi team, can someone confirm the assay call for O=c1ccc2ccccc2o1 ?
OUT: inactive

IN: Please let me know the test result on file for CCOC(=O)n1ccn(C)c1=S .
OUT: inactive

IN: Which outcome did this test record for the molecule CCN(CC)CCOc1ccc(C(O)(Cc2ccc(Cl)cc2)c2ccc(C)cc2)cc1 (stereo not given) ?
OUT: active

IN: Query: recorded result category for COc1cc2c(cc1OC)C(C(C(=O)N(CCc1ccc(OC)c(OC)c1OC)CCc1ccc(OC)c(OC)c1OC)c1ccccc1)=NCC2 (stereo not given) in this test
OUT: inactive

* * *

System: Tov112D
Assay: Primary qHTS to identify gynecologic anti-cancer compounds using libraries of approved drugs and bioactive compounds (AID 1345084); also: nearly all actives have a fitted effect of over 55% in size
Details: Gynecologic cancer cell panel viability, ATPlite luminescence, 48 h; series mostly up to 57.5 µM
Records with an inconclusive call do not appear. Calls of active or inactive are those of the source. Calls come from the whole dose curve; as a rule, active = well fitted cell-killing curve with a large enough effect; inconclusive = small, poorly fitted or top-dose-only effect, or effect the other way; inactive = flat fitted curve, though single readings scatter.
Valid outcomes are listed here; reply with one: active, inactive

Illustrative cases are given below, each with its answer.
{"columns": ["compound", "assigned-label"],
 "data": [
  ["COc1cc(C(=S)N2CCOCC2)cc(OC)c1OC", "inactive"],
  ["O=C(CCN1CCC(c2ccccc2)C1)c1ccc2c(c1)OCCO2 (stereo not drawn)", "inactive"],
  ["CCOC(=O)/C=C(C)/C=C/C=C(C)/C=C/c1c(C)cc(OC)c(C)c1C", "inactive"],
  ["Cc1c(F)c(N2CCNC(C)C2)cc2c1c(=O)c(C(=O)O)cn2C1CC1 (stereo not drawn)", "inactive"],
  ["CC(C)COC(=O)c1ccc(N)cc1", "inactive"]
]}

IN: Fill in: this test's call for CN(C)C(=S)SC(=S)N(C)C is ___
OUT: active

IN: Dear all, I need the recorded test outcome for NC(=O)CC[C@@H]1NC(=O)[C@H](Cc2ccccc2)NC(=O)[C@H](Cc2ccc(O)cc2)NC(=O)CCSSC[C@@H](C(=O)N2CCC[C@H]2C(=O)N[C@@H](CCCN=C(N)N)C(=O)NCC(N)=O)NC(=O)[C@H](CC(N)=O)NC1=O , thank you.
OUT: inactive

IN: What did this assay record as the result for CC(C)(CO)[C@@H](O)C(=O)NCCCO ?
OUT: inactive

IN: Just curious, what result did CCCN1CCCC[C@H]1C(=O)Nc1c(C)cccc1C get here?
OUT: inactive

IN: I would be grateful if you could indicate the recorded call for CCCCCCCCCCCCCCCCCC(=O)OCC(O)CO (stereo not drawn) .
OUT: inactive

IN: Returns: the outcome recorded for C[C@]12CC[C@@H]3c4ccc(O)cc4CC[C@H]3[C@@H]1C[C@@H](O)[C@@H]2O in this assay.
OUT: inactive

IN: For COCc1c(C(C)C)nc(C(C)C)c(/C=C/[C@@H](O)C[C@@H](O)CC(=O)O)c1-c1ccc(F)cc1 , what call appears in the results of this test?
OUT: active

IN: GET /call?item= O=C(OCC(O)CO)c1ccccc1Nc1ccnc2cc(Cl)ccc12 (stereo not drawn) returns the recorded outcome of this test.
OUT: inactive
